Catalogue of pEC50 values
Biological target: T1, anti-CD28 Fab (SEQ ID NOs: 202, 203)
T1 construct: biotinylated when captured in the phage ELISAs
T1 sequence (VH, as listed by the source, chain 1 of 2): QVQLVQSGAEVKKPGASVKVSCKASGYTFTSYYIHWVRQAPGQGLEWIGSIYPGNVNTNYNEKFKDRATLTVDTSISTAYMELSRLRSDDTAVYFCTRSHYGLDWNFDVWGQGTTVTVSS
T1 sequence (VL, as listed by the source, chain 2 of 2): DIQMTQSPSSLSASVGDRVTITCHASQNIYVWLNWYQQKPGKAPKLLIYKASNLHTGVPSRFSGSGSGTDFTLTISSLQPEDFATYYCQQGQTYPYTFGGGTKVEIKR
Assay: binding ELISA, peptide captured, anti-CD28 Fab titrated
pEC50: −log10 of the molar value. No end group written: not given here.

Binder: TCAAGATWSWPACF (cysteine pairing not given here; also: biotinylated, site not given here) [Peptide-94]
pEC50: 8.35

Binder: TCSAGATWAWPLCF (cysteine pairing not given here; also: biotinylated, site not given here) [Peptide-104]
pEC50: 7.81

Binder: TCAAGAAWPWPQCL (cysteine pairing not given here; also: biotinylated, site not given here) [Peptide-92]
pEC50: 8.59

Binder: SCSAGAHYPWPQCF (cysteine pairing not given here; also: biotinylated, site not given here) [Peptide-100]
pEC50: 7.72

Binder: LCAAGASWPWPVCL (cysteine pairing not given here; also: biotinylated, site not given here) [Peptide-90]
pEC50: 7.88

Binder: TCSAGAAYPWPLCL (cysteine pairing not given here; also: biotinylated, site not given here) [Peptide-97]
pEC50: 8.36

Binder: LCAAGATYPWPTCL (cysteine pairing not given here; also: biotinylated, site not given here) [Peptide-99]
pEC50: 7.59

Binder: TCAAGATYLWPTCL (cysteine pairing not given here; also: biotinylated, site not given here) [Peptide-105]
pEC50: 7.69

Binder: TCSAGATYEWPRCL (cysteine pairing not given here; also: biotinylated, site not given here) [Peptide-101]
pEC50: 7.89

Binder: TCSAGAHYPWPICL (cysteine pairing not given here; also: biotinylated, site not given here) [Peptide-102]
pEC50: 7.97
